Values compiled from patent US20160032001A1.

We begin with a simple list: items and their reported EC50.
# tested_target: T1, RANKL expressed on the surface of 293 cells (UniProt O14788 1-317, limits assumed)
# T1 construct: whole, on cells; also called RANKL-transfected 293 cells; cells expressing RANKL
# T1 sequence (looked up): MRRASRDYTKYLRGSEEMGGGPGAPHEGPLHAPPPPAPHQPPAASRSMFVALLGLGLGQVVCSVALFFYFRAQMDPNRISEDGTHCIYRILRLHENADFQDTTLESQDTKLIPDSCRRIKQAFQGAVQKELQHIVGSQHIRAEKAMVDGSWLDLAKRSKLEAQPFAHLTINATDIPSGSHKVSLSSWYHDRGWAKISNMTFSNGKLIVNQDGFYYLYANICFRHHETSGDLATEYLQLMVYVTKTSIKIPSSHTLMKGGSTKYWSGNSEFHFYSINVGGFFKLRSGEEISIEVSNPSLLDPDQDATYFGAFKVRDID
# experiment_summary: flow cytometry (MFI) on RANKL-transfected 293 cells
Give the quantity in µg/mL, number only.

| binder | EC50 [µg/mL] |
| --- | --- |
| clone 174 rabbit anti-RANKL antibody (antibody, V domains shown) VH: QEQLQESGGGLITPGGTLTLTCTASGFSFNRNALSWVRQAPGKGLEWIGYIYSGGSPYYANWAKGRFNVSRTSTTVDLRMTSLTTEDTATYFCARHVSGGGWYLDIWGPGTLVTVSL VL: DMIQTPASVEVAVGGTVTINCQASQNIGSNLAWYQQKPGQPPKLLIYGTSTLASGVSSRFKGSGFGTQFTFTISDVECTDAATYYCQQAYSISNVDNAFGGGTEVVVK | 0.13 |

The binder identified as clone 7 rabbit anti-RANKL antibody (antibody, V domains shown) VH: QEQLKESGGGLVTPGGTLTLTCTASGFSLTTNGMSWVRQAPGKGLEWIGYIYSGGSPYYANWAKGRFTISKTSSTTVDLKMTSLTTEDTATYFCARHLSGGGWYLDIWGPGTLVTVSL VL: DMTQTPASVEVAVGGTVTINCQASQNIGSNLAWYQQKPGQPPKLLIYGASTLASGVSSRFKGSGSGTQFTFTISDVECTDPATYYCQQAYSISNVDNPFGGGTEVVVK registered its EC50 at 0.248
